target: UniProt O95136; assay: Antagonist activity against human S1P2 receptor assessed as inhibition of S1P-induced intracellular calcium mobilization in CHO-K1 cells at 10 uM; type: functional, cell-based
Sequence (O95136 whole entry): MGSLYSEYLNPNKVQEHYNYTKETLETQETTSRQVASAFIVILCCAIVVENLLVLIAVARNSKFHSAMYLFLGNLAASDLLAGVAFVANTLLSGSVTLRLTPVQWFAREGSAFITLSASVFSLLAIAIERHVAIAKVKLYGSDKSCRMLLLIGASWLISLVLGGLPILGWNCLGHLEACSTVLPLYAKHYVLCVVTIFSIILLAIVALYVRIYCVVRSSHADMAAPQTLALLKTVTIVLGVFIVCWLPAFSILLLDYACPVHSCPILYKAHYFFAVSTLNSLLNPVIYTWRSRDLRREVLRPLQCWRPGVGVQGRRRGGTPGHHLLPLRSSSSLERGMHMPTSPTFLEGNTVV
READOUT: inhibition (%)
One number for each entry, in %.

For every listed record, write down its inhibition.
1. CCCCCCCCCCCCCCCCOc1ccc(/C(=N/NS(=O)(=O)c2cccc(C(=O)O)c2)c2ccccc2)cc1OC
2. CCCCCCCCCCCCCCCCOc1ccc(/C(=N\NS(=O)(=O)c2cccc(C(=O)O)c2)c2ccccc2)cc1OC
3. CCCCCCCCOc1ccc(/C(=N\NS(=O)(=O)c2cc(C(=O)O)cc(C(=O)O)c2)c2ccccc2)cc1OC

Output:
1. -0.1
2. -8.7
3. 14

For every listed record, write down its inhibition.
1. CCCCCCCCCCCCCCCCOc1ccc(/C(=N/NS(=O)(=O)c2cc(C(=O)O)cc(C(=O)O)c2)N2CCCCC2)cc1OC
2. CCCCCCCCCCCCCCCCOc1ccc(/C(=N/NS(=O)(=O)c2cc(C(=O)O)cc(C(=O)O)c2)c2ccccc2)cc1
3. CCCCCCCCCCCCCCCCOc1ccc(/C(=N/NS(=O)(=O)c2cc(C(=O)O)cc(C(=O)O)c2)c2ccccc2)cc1OC
4. CCCCCCCCOc1ccc(/C(=N/NS(=O)(=O)c2cc(C(=O)O)cc(C(=O)O)c2)c2ccccc2)cc1OC

Output:
35.9
20.5
40.9
-4.6

For every listed record, write down its inhibition.
1. CCCCCCCCCCCCCCCCOc1ccc(/C(=N\NS(=O)(=O)c2cc(C(=O)O)cc(C(=O)O)c2)c2ccccc2)cc1OC
2. CCCCOc1ccc(/C(=N/NS(=O)(=O)c2cc(C(=O)O)cc(C(=O)O)c2)c2ccccc2)cc1OC

Output:
1. 9.5
2. 6.2
